- test_description: Antioxidant activity assessed as reduction of […]/ferricyanide complex after 20 mins
- Assay type: functional
measured_attribute: log10 IC50 (log10 of the value in µg/mL)
The base-10 logarithm of IC50, taken with IC50 in µg/mL, is what appears here.

**Q:** Entry O=C(/C=C/c1ccc(O)c(O)c1)O[C@@H]1O[C@H](CO)[C@@H](O)[C@H](O)[C@H]1O needs its log10 IC50 filled in; supply it.
**A:** 1.53

**Q:** Entry O=C(/C=C/c1ccc(O[C@@H]2O[C@H](CO)[C@@H](O)[C@H](O)[C@H]2O)c(O)c1)O[C@@H]1O[C@H](CO)[C@@H](O)[C@H](O)[C@H]1O needs its log10 IC50 filled in; supply it.
**A:** 1.98

**Q:** Entry Cc1c(C)c2c(c(C)c1O)CC[C@@](C)(CCC[C@H](C)CCC[C@H](C)CCCC(C)C)O2 needs its log10 IC50 filled in; supply it.
**A:** 2.03

**Q:** Entry C[C@@H]1O[C@@H](Oc2cc(O)c3c(=O)c(O[C@@H]4O[C@H](CO)[C@@H](O)[C@H](O)[C@H]4O)c(-c4ccc(O[C@@H]5O[C@H](CO)[C@@H](O)[C@H](O)[C@H]5O)c(O)c4)oc3c2)[C@H](O)[C@H](O)[C@H]1O needs its log10 IC50 filled in; supply it.
**A:** 1.68

**Q:** Entry COC(=O)/C=C/c1cc(O)cc(O[C@@H]2O[C@H](CO)[C@@H](O)[C@H](O)[C@H]2O)c1 needs its log10 IC50 filled in; supply it.
**A:** 2.80

**Q:** Entry O=C(O[C@@H]1O[C@H](CO)[C@@H](O)[C@H](O)[C@H]1O)c1ccc(O[C@@H]2O[C@H](CO)[C@@H](O)[C@H](O)[C@H]2O)cc1 needs its log10 IC50 filled in; supply it.
**A:** 2.87

**Q:** Entry O=c1c(O)c(-c2ccc(O)c(O)c2)oc2cc(O)cc(O)c12 needs its log10 IC50 filled in; supply it.
**A:** 1.39

**Q:** Entry COC(=O)/C=C/c1ccc(O[C@@H]2O[C@H](CO)[C@@H](O)[C@H](O)[C@H]2O)c(O)c1 needs its log10 IC50 filled in; supply it.
**A:** 2.69
